All figures here come from PubChem BioAssay (NCI).

System: SK-MEL-28 melanoma
measurement_protocol: NCI tumour cell line growth inhibition, 48 h
parameter_measured: TGI

Illustrative cases are given below, each with its answer.
# compound, measured_target, result
rows = [
    ("COC(=O)c1ccccc1N(C(=O)c1ccccc1)c1ccccc1C", "SK-MEL-28 melanoma", "> 100 µM"),
    ("C=CCN1/C(=C(\\C#N)c2nc3ccccc3[nH]2)Sc2c1nc[nH]c2=O", "SK-MEL-28 melanoma", "> 100 µM"),
    ("COc1cc(OC)c(C(=O)c2cccs2)cc1N", "SK-MEL-28 melanoma", "> 100 µM"),
    ("CO[C@@H]1C=C[C@@]23c4cc5c(cc4CN(C[C@@H]2O)[C@H]3C1)OCO5", "SK-MEL-28 melanoma", "> 100 µM"),
    ("NC(=NCc1ccccc1)C(N=Nc1ccccc1)C(=O)NCc1ccccc1 (stereo unspecified)", "SK-MEL-28 melanoma", "45.7 µM"),
    ("O=C(/C=C/c1ccc(Cl)cc1)c1ccccc(=O)c1O", "SK-MEL-28 melanoma", "26.4 µM"),
    ("COc1nc2cccc(C(O)c3ccccc3)c2nc1-c1ccccc1 (stereo unspecified)", "SK-MEL-28 melanoma", "> 100 µM"),
    ("O=C(/C=C\\c1cccc2ccccc12)c1ccc(F)cc1", "SK-MEL-28 melanoma", "26.4 µM"),
    ("c1cc(-c2ccc(-c3ccc(-c4ccc(-c5ccncc5)o4)cc3)o2)ccn1", "SK-MEL-28 melanoma", "44.6 µM"),
    ("C[C@@]1(C(=O)O)CCC[C@]2(C)C1CC[C@@]13C[C@@](O)(CC[C@]12O)[C@@]1(CO1)C3 (stereo partly specified)", "SK-MEL-28 melanoma", "> 100 µM"),
]

So, `NCCc1ccc(S(=O)(=O)F)cc1` ? Its TGI was > 100 µM

###

System: SNB-19 CNS
measurement_protocol: NCI tumour cell line growth inhibition, 48 h; in the data active = GI50 below about 0.43 µM; inactive = the rest
A correct response names exactly one class from true (1) for active, false (0) for inactive

Some entries whose results are on file:
# molecule, classification
data = [
    ("Cn1c(=O)c(Oc2ccc(F)cc2F)cc2cnc(NC(C)(C)CO)nc21", "false (0)"),
    ("CCCCCCCCCCCCCCCCCc1nccn1CCOCCO", "false (0)"),
    ("Cc1ccc2oc(=O)cc(/C(=C3/C=CC=N3)c3ccc[nH]3)c2c1", "true (1)"),
]

Ask: # lookup: test call for `CSc1c(C2=C(c3cn(C)c4ccccc34)C(=O)NC2=O)c2ccccc2n1C`
Result: false (0)

Ask: # lookup: test call for `CCC[CH2][Sn]([CH2]CCC)([O]c1cccc2cccnc12)[O]c1cccc2cccnc12`
Result: true (1)

Ask: # lookup: test call for `O=S(=O)(CCN1CCOCC1)Nc1cc(-c2ccc3ncnc(Nc4ccc(F)c(Cl)c4)c3c2)cnc1Cl`
Result: false (0)

Ask: # lookup: test call for `CC/C=C\C[C@H](F)C/C=C1/C(=O)C=C[C@@H]1C/C=C\CCCC(=O)OC`
Result: false (0)

Ask: # lookup: test call for `COc1ccc(C#Cc2ccc(=O)oc2-c2cc(OC)c(OC)c(OC)c2)cc1O`
Result: false (0)

Ask: # lookup: test call for `Cc1nc2c(c(N3CCCc4ccccc43)n1)CCC2`
Result: true (1)

Ask: # lookup: test call for O=C(CC1(O)C(=O)N(Cc2ccccc2)c2ccc(Cl)cc21)c1ccc(C(=O)NCC2CCC3(CC2)OOC2(CCCCC2)OO3)cc1 (stereo not given)
Result: false (0)

###

Tested on: KM12 colon
measurement_protocol: NCI tumour cell line growth inhibition, 48 h
Parameter threshold = 30 µM. Response is true when TGI meets or exceeds it, else false.

Some entries whose results are on file:
# compound, classification
measured = [
    ("COc1cccc(/C=C/C(=O)c2ccc(SC)cc2)c1OC", "true"),
    ("COc1cc(/C=C(\\NC(=O)c2ccccc2)c2nc3ccc4c(c3[nH]2)C(=O)c2ccccc2C4=O)cc(OC)c1OC", "true"),
    ("Cc1c2ccn(O)cc2c(C)c2c1nc1ccccc12", "true"),
    ("O=C(CCl)NCCNc1nccc(Nc2ccc(S(=O)(=O)Nc3ccccn3)cc2)n1", "false"),
    ("N/N=C1\\C(=O)N(Cc2ccccc2)C(=O)C1C(=O)NCc1ccccc1 (stereo not given)", "true"),
    ("Cc1ccc(C(=O)Nc2ccc(CP(=O)(O)O)cc2)cc1NC(=O)c1cccc(N)c1", "true"),
    ("CC(=O)O[C@H]([C@H](OC(C)=O)[C@H](C)OC(C)=O)[C@@H](/C=C/[C@@H]1CC=CC(=O)O1)OC(C)=O", "true"),
    ("CCCc1cn2c(/C=N/N=C(N)N)c(-c3cccc([N+](=O)[O-])c3)nc2s1", "false"),
]

Field: next compound
Ask: Decide: is the reported value of TGI for COc1cc2c(cc1OC)C1C(=O)c3c(O)cc4c(c3OC1CO2)C=CC(C)(C)O4 (stereo not given) equal to or greater than 30 µM?
Result: true

###

Tested on: HCC-2998 colon
measurement_protocol: NCI tumour cell line growth inhibition, 48 h
Parameter threshold = 10 µM. Response is yes when TGI meets or exceeds it, else no.

Some entries whose results are on file:
# compound, measured_target, classification
data = [
    ("CC1(C)[C@@H]2C[C@H]1[C@@H](Cc1cccc(C[C@H]3c4cc(-c5ccccn5)ncc4[C@H]4C[C@@H]3C4(C)C)c1)c1cc(-c3ccccn3)ncc12", "HCC-2998 colon", "yes"),
    ("NS(=O)(=O)c1nnc(NC(=O)C23CC4CC(CC(C4)C2)C3)s1", "HCC-2998 colon", "yes"),
    ("Oc1ccc(Nc2ccc3ccccc3c2)cc1", "HCC-2998 colon", "yes"),
]

Ask: Decide: is the reported value of TGI for `CCOC(=O)Cn1c2ccccc2c(=O)c2cc(C)c(C)c(C#N)c21` equal to or greater than 10 µM?
Result: yes

Ask: Decide: is the reported value of TGI for `COc1cccc(/C=N/NC(=O)CSCC(=O)N/N=C/c2cccc(OC)c2OC)c1OC` equal to or greater than 10 µM?
Result: yes

Ask: Decide: is the reported value of TGI for `O=c1c2ccccc2[nH]n1Cc1ccccc1` equal to or greater than 10 µM?
Result: yes

Ask: Decide: is the reported value of TGI for COc1cc(C2c3cc4c(cc3[C@@H](Nc3cccc(CO)c3)C3COC(=O)[C@H]23)OCO4)cc(OC)c1O (some centres undefined) equal to or greater than 10 µM?
Result: no

Ask: Decide: is the reported value of TGI for CCCCC(CCCCCC(CCCC)NCc1ccc2c(c1)OCO2)NCc1ccc2c(c1)OCO2 (centres undefined) equal to or greater than 10 µM?
Result: no

###

Property: TGI; scope: individual compounds
Test system: CCRF-CEM leukemia
measurement_protocol: NCI tumour cell line growth inhibition, 48 h

# compound, result
measured = [
    ("O=C1C=CC2OC(c3ccccc3)C(O)C2O1 (centres undefined)", "11.6 µM"),
    ("CCCc1n(Cc2ccc3ccccc3c2)cc[n+]1Cc1ccc2ccccc2c1", "4.93 µM"),
    ("CCCCCCCCCCCCCCCCCc1nccn1CCOCCO", "12.4 µg/mL"),
    ("Oc1ccc(Nc2ccc3ccccc3c2)cc1", "> 100 µM"),
    ("O=C(Cc1ccccc1F)NC1=C(Cl)C(=O)c2ccccc2C1=O", "7.36 µM"),
    ("CNC(=O)NCNC(=O)NC", "> 100 µM"),
]

So, C=C1CC2(CC(c3ccccc3Cl)OC(c3ccccc3Cl)C2)OC1=O (centres undefined) ? Its TGI was 10.1 µM

So, `Cc1cccc(Br)[n+]1[O-]` ? Its TGI was > 100 µM

So, `O=C(O)/C(Cl)=C(\Cl)C(=O)c1ccccc1` ? Its TGI was > 100 µM

So, CCOC(=O)CC1COc2ccc3c(c21)OCO3 (centres undefined) ? Its TGI was > 100 µM

So, `COc1ccc(/C=C/C(=O)/C=C/c2ccc(OC)cc2OC)c(OC)c1` ? Its TGI was 13.5 µM

So, `CCC[CH2][Sn]([CH2]CCC)([O]c1cccc2cccnc12)[O]c1cccc2cccnc12` ? Its TGI was 0.313 µM

So, CCOC(=O)CC(c1ccccc1)C(C)(C(=O)OCC)C(=O)OCC (centres undefined) ? Its TGI was > 100 µM

So, `CCOC(=O)c1cc(-n2nnc3ccccc32)cn1C` ? Its TGI was > 10 µM

###

Property: TGI; scope: individual compounds
Tested on: SN12C renal
measurement_protocol: NCI tumour cell line growth inhibition, 48 h

Illustrative cases are given below, each with its answer.
# compound, TGI
records = [
    ("O=C1c2ccccc2C(=O)N1CCSCC(CO)SCCN1C(=O)c2ccccc2C1=O (configuration not stated)", "> 100 µM"),
    ("CC1CN=C(NS(=O)(=O)c2cc(C(=O)Nc3ccc(Cl)cc3)c(Cl)cc2S)NN1 (configuration not stated)", "> 100 µM"),
    ("COC(=O)c1cc(C(=O)OC)c(CC(=O)C(=O)NC2C3CC4CC(C3)CC2C4)nc1CC(=O)C(=O)NC1C2CC3CC(C2)CC1C3 (configuration not stated)", "> 100 µM"),
    ("CC(C)C12Cc3c(ccc4ccccc34)OC1(C)Oc1ccc3ccccc3c1C2 (configuration not stated)", "> 100 µM"),
]

TGI for SN12C renal with input `CCOC(=O)NN(C(=O)OCC)C(C(=O)C1=CCCCC1)N(NC(=O)OCC)C(=O)OCC` equals > 100 µM

TGI for SN12C renal with input `O=C(/C=C\c1cccc2ccccc12)c1ccc(F)cc1` equals 32.3 µM

TGI for SN12C renal with input `COc1ccc2c3c(Nc4cccc(/C(C)=N\O)c4)[nH]c4ccccc4c-3c(N=O)c2c1` equals > 100 µM

TGI for SN12C renal with input COc1cc(C2C3=C(COC3=O)Oc3cc4c(cc32)OCO4)ccc1O (configuration not stated) equals > 100 µM

TGI for SN12C renal with input `Clc1cccc(-c2sc(-c3ccsc3)cc2Cc2ccsc2)c1` equals > 10 µM

TGI for SN12C renal with input `COCCN(CCNC(=O)c1cccc2c(N)c3cccc(C)c3nc12)CCOC` equals 6.54 µM

TGI for SN12C renal with input `CCN1CCC(Nc2ccnc3cc(Cl)ccc23)CC1` equals > 100 µM

TGI for SN12C renal with input `CCOC(=O)c1cc(-n2nnc3ccccc32)cn1C` equals > 10 µM

TGI for SN12C renal with input `O=C1CSC(=S)N1c1ccco1` equals > 100 µM

TGI for SN12C renal with input `CC/C=C\C[C@H](F)C/C=C1/C(=O)C=C[C@@H]1C/C=C\CCCC(=O)OC` equals 3.24 µM

TGI for SN12C renal with input `COc1cc(-c2nccc3cc(OC)c(OC)cc23)ccc1O` equals > 100 µM

TGI for SN12C renal with input `CCOC(=O)Cn1c2ccccc2c(=O)c2cc(C)c(C)c(C#N)c21` equals > 100 µM

TGI for SN12C renal with input `Oc1ccc(Nc2ccc3ccccc3c2)cc1` equals > 100 µM

TGI for SN12C renal with input `Cc1ccc2oc(=O)cc(/C(=C3/C=CC=N3)c3ccc[nH]3)c2c1` equals 3.36 µM

TGI for SN12C renal with input `Cc1c(-c2ccc(C3CCCCC3)cc2)nc2ccc(F)cc2c1C(=O)O` equals > 100 µM

TGI for SN12C renal with input `O=P1(c2ccccc2)c2ccccc2-c2ccccc21` equals > 100 µM

TGI for SN12C renal with input `CC1=CC(C)=NN=C(N)N1S(=O)(=O)c1cc(C)c(Cl)cc1SCc1ccccc1` equals > 100 µM

TGI for SN12C renal with input `COc1ccc(OC)c(NCC(=O)Nn2cnc3ccc(S(=O)(=O)Nc4cc(OC)ccc4OC)cc3c2=O)c1` equals > 100 µM
